test: Cytotoxicity against mouse NIH/3T3 cells assessed as cell survival rate at 316 uM after 24 hrs by MTT assay; type: cell-based, NIH3T3; conditions: read-out: Survival
quantityKind: viability at 24 h, 316 µM (%)
Give a bare numeral; the unit % is implied.

-- ask Tell me the measured viability at 24 h, 316 µM of `COc1cc(-c2oc3cc(O)cc(O)c3c(=O)c2O)ccc1O` , please.
-- reply 63

---

assay: Cytotoxicity against human HaCaT cells assessed as cell survival rate at 158 uM after 24 hrs by MTT assay; type: cell-based; settings: read-out: Survival
quantityKind: viability at 24 h, 158 µM (%)
Record the value in %, omitting the unit from your answer.

-- ask Query: viability at 24 h, 158 µM; subject: COc1cc(-c2oc3cc(O)cc(O)c3c(=O)c2O)ccc1O [ISORHAMNETIN]
-- reply 90

Ref: ChEMBL document CHEMBL4477177
